target: Acetylcholinesterase (Homo sapiens)
assay.name: Acetylcholinesterase (AChE) small molecule antagonists: enzyme-based qHTS assay (AID 1347397); note: nearly all actives have a fitted effect of over 55% in size; note: potency is the fitted concentration of half-maximal effect
test.settings: AChE enzyme activity inhibition; series mostly up to 115 µM
Active and inactive are the calls of the source. Calls come from the whole dose curve.
assay.endpoint: Potency

Recorded Potency, per entry:
{"columns": ["compound", "Potency"],
 "data": [
  ["C[C@]12CC[C@@H]3c4ccc(O)cc4CC[C@H]3[C@@H]1C[C@@H](O)[C@@H]2O", "inactive"],
  ["CC(C)Cc1ccc(CC(=O)O)cc1", "inactive"],
  ["Fc1ccc(C(c2ccc(F)cc2)N2CCNCC2)cc1", "inactive"],
  ["CCC(=O)OC(C)(C)C1CC=C(C)CC1 (stereo not given)", "inactive"],
  ["C[C@H]1C[C@H]2[C@@H]3CCC4=CC(=O)C=C[C@]4(C)[C@@]3(F)[C@@H](O)C[C@]2(C)[C@@]1(O)C(=O)CO", "inactive"],
  ["C/C=C(C)/C=C/C=C(C)C", "inactive"]
]}

Dear reader, for each entry below, please note its Potency.
1. CC(=O)O[C@@H]1CC2C3CCc4cc(OC(=O)c5ccccc5)ccc4C3CCC2(C)[C@H]1OC(C)=O (stereo not given in full)
2. CCN=C1C=CC(=C(c2ccc(N(CC)CC)cc2)c2ccc(N(CC)CC)cc2)c2ccccc21
3. CC(C)c1cc(C(C)C)cc(C(C)C)c1
4. Nc1ncnc2c1ncn2[C@@H]1O[C@H](CO)[C@@H](O)[C@H]1O
5. CCOc1ccc([N+](=O)[O-])cc1
6. C=CC/C=C/C

Reply:
1: inactive; 2: 19.9 µM (active); 3: inactive; 4: inactive; 5: inactive; 6: inactive

Dear reader, for each entry below, please note its Potency.
1. CN(C)[C@@H]1C(=O)C(C(N)=O)=C(O)[C@@]2(O)C(=O)C3=C(O)c4c(O)cccc4C[C@H]3C[C@@H]12
2. CNC(=S)NN
3. CCC(C)c1cc([N+](=O)[O-])cc([N+](=O)[O-])c1OC(=O)OC(C)C (stereo not given)
4. NC(=O)c1nc(-c2cccc(-c3cc(F)ccc3OCC(F)(F)C(F)(F)F)c2)n[nH]1
5. C=CCNCC=C
6. NS(=O)(=O)c1cc(C(=O)O)cc(N2CCCC2)c1Oc1ccccc1
7. O=C1[C@@H]2[C@H]3CC[C@H](C3)[C@@H]2C(=O)N1CCCCN1CCN(c2ncccn2)CC1
8. NC(=O)Cn1c(=O)cc(CCN2CCN(c3nccc4sccc34)CC2)c2ccc(F)cc21

Reply:
["inactive", "inactive", "inactive", "inactive", "inactive", "inactive", "inactive", "inactive"]

Dear reader, for each entry below, please note its Potency.
1. O=C(O)CNC(=O)c1ccc(CO)o1
2. O=C(O)Cc1cn(-c2ccccc2)nc1-c1ccc(Cl)cc1
3. CC(C)NC(=O)NC(C)C
4. C=C(C)[C@@H]1CCC2=CC(=O)C[C@@H](C)[C@]2(C)C1
5. C[C@]12CC[C@H]3[C@@H](CCC4=CC(=O)CC[C@@]43C)[C@@H]1CC[C@@H]2C(=O)CO
6. O=C1NC(c2ccccc2)(c2ccccc2)C(=O)N1COP(=O)(O)O
7. C=CCCCCCCCCC(=O)OCC

Reply:
inactive
inactive
inactive
inactive
inactive
inactive
inactive
